test system: Enterobacter cloacae; experiment: Inhibition of Enterobacter cloacae ECL1002 AmpC assessed as minimum concentration of compound needed to reduce the MIC of aztreonam to 4 ug/ml
MEASURED PARAMETER: MEC

Examples with answers:
1. N#CCOc1ccc2c(c1C(=O)O)OB(O)[C@@H](Sc1nncs1)C2 ... > 20 µg/mL
2. NC(=O)CCS[C@H]1Cc2cccc(C(=O)O)c2OB1O ... > 20 µg/mL
3. O=C(O)c1cccc2c1OB(O)[C@@H](Sc1nccs1)C2 ... > 20 µg/mL
4. O=C(O)c1cccc2c1OB(O)[C@@H](Sc1ccccn1)C2 ... > 10 µg/mL
5. O=C(O)c1cccc2c1OB(O)[C@@H](Sc1nnc[nH]1)C2 ... > 40 µg/mL

Shift focus to the following entry.
Memo: O=C(O)c1cccc2c1OB(O)[C@@H](Sc1ncc[nH]1)C2 , reported MEC: > 10 µg/mL

---

Catalogue of MEC values
test system: Klebsiella pneumoniae; experiment: Inhibition of Klebsiella pneumoniae KP1054 VIM-1 assessed as minimum concentration of compound required to reduce the MIC of biapenem to 1 ug/ml
Please reply with the bare figure in µg/mL and do not write the unit itself.

1. O=C(O)c1cccc2c1OB(O)[C@@H](Sc1c[nH]nn1)C2 ... 0.6
2. NC(=O)CS[C@H]1Cc2cccc(C(=O)O)c2OB1O ... 2.5

Okay, next one:
Reported Klebsiella pneumoniae MEC for item O=C(O)c1c(OCc2nncs2)ccc2c1OB(O)[C@@H](Sc1nncs1)C2 was 0.3

---

tested on: Klebsiella pneumoniae; test: Inhibition of Klebsiella pneumoniae KP1009 CTX-M-15 assessed as minimum concentration of compound required to reduce the MIC of aztreonam to 4 ug/ml
Each record here notes measured MEC.

Some compounds with known MEC results, for comparison:
1) Nc1nnc(S[C@H]2Cc3ccc(OCC(F)F)c(C(=O)O)c3OB2O)s1 ... > 20 µg/mL
2) O=C(O)c1cccc2c1OB(O)[C@@H](Sc1ncc[nH]1)C2 ... > 10 µg/mL
3) O=C(O)c1cccc2c1OB(O)[C@@H](Sc1ccccn1)C2 ... > 10 µg/mL
4) COc1ccc2c(c1C(=O)O)OB(O)[C@@H](NC(=O)CSC)C2 ... < 0.3 µg/mL
5) O=C(O)c1cccc2c1OB(O)[C@@H](Sc1nccs1)C2 ... > 20 µg/mL
6) Cn1cnnc1S[C@H]1Cc2cccc(C(=O)O)c2OB1O ... > 20 µg/mL

Then there is this compound:
# MEC (compound: O=C(O)c1cccc2c1OB(O)[C@@H](Sc1c[nH]nn1)C2 ) is > 20 µg/mL

---

Measured MEC values are reported for all entries that follow.
target: Beta-lactamase (Klebsiella pneumoniae) (UniProt Q93LQ9); assay: Inhibition of Klebsiella pneumoniae KP1004 KPC-2 assessed as minimum concentration of compound needed to reduce the MIC of aztreonam to 4 ug/ml
Sequence (Q93LQ9 as listed by the source): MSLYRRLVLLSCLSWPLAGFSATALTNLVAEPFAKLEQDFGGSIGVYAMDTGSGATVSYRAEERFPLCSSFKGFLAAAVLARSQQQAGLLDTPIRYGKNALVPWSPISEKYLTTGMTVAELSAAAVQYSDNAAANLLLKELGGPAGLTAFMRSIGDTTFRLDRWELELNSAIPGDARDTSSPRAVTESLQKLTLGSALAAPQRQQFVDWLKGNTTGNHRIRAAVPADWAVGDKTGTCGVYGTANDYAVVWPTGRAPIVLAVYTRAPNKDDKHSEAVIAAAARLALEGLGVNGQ
Note: unit µg/mL is implicit; provide only the numeric part.

1) NC(=O)CCS[C@H]1Cc2cccc(C(=O)O)c2OB1O ... 5
2) CSCC(=O)N[C@H]1Cc2ccc(F)c(C(=O)O)c2OB1O ... 0.6
3) CSCC(=O)N[C@H]1Cc2ccc(Sc3nncn3C)c(C(=O)O)c2OB1O ... 5
4) O=C(O)c1c(F)ccc2c1OB(O)CC2 ... 0.16
5) C[C@H]1Cc2cccc(C(=O)O)c2OB1O ... 1.25

MEC measured on CS[C@H]1Cc2cccc(C(=O)O)c2OB1O = 2.5

Looking up O=C(O)c1c(OCCF)ccc2c1OB(O)[C@@H](Sc1nncs1)C2 , I found its MEC recorded as 5

Reported MEC of CSCC(=O)N[C@H]1Cc2ccc(SCCO)c(C(=O)O)c2OB1O : 2.5

---

tested on: Pseudomonas aeruginosa; experiment: Inhibition of Pseudomonas aeruginosa PAM 2035 AmpC assessed as minimum concentration of compound needed to reduce the MIC of aztreonam to 4 ug/ml
MEASURED PARAMETER: log10 of MEC (log10 of the value in µg/mL)
For clarity, the numbers are log10 values of MEC expressed in µg/mL.

Examples with their reported log10 of MEC follow.
1) O=C(O)c1cccc2c1OB(O)[C@@H]1C[C@H]21 ... -0.22
2) COc1ccc2c(c1C(=O)O)OB(O)C1C2C1(F)F (stereo not drawn) ... 1.00

Let's switch to this molecule now.
log10 of MEC reported for this molecule O=C(O)c1c(F)ccc2c1OB(O)[C@@H]1C[C@H]21 : 0.70

---

system: Klebsiella pneumoniae; experiment: Inhibition of Klebsiella pneumoniae KP1081 NDM-1 assessed as minimum concentration of compound required to reduce the MIC of biapenem to 1 ug/ml
MEASURED PARAMETER: MEC

As a guide, the following entries are already answered.
1. O=C(O)c1cccc2c1OB(O)[C@@H](Sc1nnc[nH]1)C2 ... < 0.3 µg/mL
2. O=C(O)c1cccc2c1OB(O)[C@@H](Sc1ccccn1)C2 ... > 20 µg/mL
3. COc1ccc2c(c1C(=O)O)OB(O)C(CO)C2 (stereo not given) ... > 20 µg/mL
4. Cn1cnnc1S[C@H]1Cc2cccc(C(=O)O)c2OB1O ... < 0.3 µg/mL

// moving on: another record for MEC
The reported MEC value, Klebsiella pneumoniae, for N=C(N)S[C@H]1Cc2cccc(C(=O)O)c2OB1O reads > 20 µg/mL

---

tested on: Escherichia coli; assay: Inhibition of Escherichia coli EC302 TEM-10 assessed as minimum concentration of compound needed to reduce the MIC of aztreonam to 4 ug/ml
MEASURED PARAMETER: log10 of MEC (log10 of the value in µg/mL)
Log scale reminder: MEC in µg/mL, then log10 taken.

Sample answers from the record:
1. O=C(O)c1cccc2c1OB(O)[C@H]1C[C@@H]21 ... 0.70
2. O=C(O)c1cccc2c1OB(O)[C@@H]1C[C@H]21 ... -0.80
3. COc1ccc2c(c1C(=O)O)OB(O)[C@@H]1C[C@H]21 ... -1.10

Escherichia coli data for CSCC(=O)N[C@H]1Cc2ccc(SCC(N)=O)c(C(=O)O)c2OB1O ; its log10 of MEC: 0.10

For the molecule O=C(O)c1c(OCc2nncs2)ccc2c1OB(O)[C@@H](Sc1nncs1)C2 , the measured log10 of MEC on Escherichia coli was 0.70

Escherichia coli data for COc1ccc2c(c1C(=O)O)OB(O)CC21CC1 ; its log10 of MEC: 0.70

The molecule COc1ccc2c(c1C(=O)O)OB(O)C1CCC21 (configuration not stated) , tested on Escherichia coli, showed log10 of MEC of 1.00

---

test system: Escherichia coli; assay: Inhibition of Escherichia coli KP308 SHV-5 assessed as minimum concentration of compound required to reduce the MIC of aztreonam to 4 ug/ml
MEC values by entry

1. C[C@@H]1Cc2cccc(C(=O)O)c2OB1O ... > 20 µg/mL
2. O=C(O)c1cccc2c1OB(O)[C@@H](Sc1ncc[nH]1)C2 ... > 10 µg/mL
3. Nn1cnnc1S[C@H]1Cc2cccc(C(=O)O)c2OB1O ... 10 µg/mL

As a next step, examine the molecule that follows.
Escherichia coli data for NC(=O)CS[C@H]1Cc2cccc(C(=O)O)c2OB1O ; its MEC: > 10 µg/mL

---

tested on: Enterobacter cloacae; experiment: Inhibition of Enterobacter cloacae ECL1002 AmpC assessed as minimum concentration of compound needed to reduce the MIC of aztreonam to 4 ug/ml
MEASURED PARAMETER: MEC

Some entries whose results are on file:
1) O=C(O)c1c(OCCF)ccc2c1OB(O)[C@@H](Sc1nncs1)C2 ... > 20 µg/mL
2) O=C(O)c1c(OC(F)F)ccc2c1OB(O)[C@@H](Sc1nncs1)C2 ... > 20 µg/mL
3) CSCC(=O)N[C@H]1Cc2ccc(O)c(C(=O)O)c2OB1O ... 2.5 µg/mL
4) Cn1cnnc1S[C@H]1Cc2cccc(C(=O)O)c2OB1O ... > 20 µg/mL
5) Nc1nnc(S[C@H]2Cc3cccc(C(=O)O)c3OB2O)[nH]1 ... > 20 µg/mL

Bench note, Enterobacter cloacae: entry O=C(O)c1cccc2c1OB(O)[C@@H](Sc1c[nH]nn1)C2 , its MEC = > 20 µg/mL

Per the reported Enterobacter cloacae data, CSCCOc1ccc2c(c1C(=O)O)OB(O)[C@@H](Sc1nncs1)C2 has MEC of > 20 µg/mL

Tested on Enterobacter cloacae, the item C[C@@H]1Cc2cccc(C(=O)O)c2OB1O showed MEC equal to > 20 µg/mL

Result for NC(=O)CS[C@H]1Cc2cccc(C(=O)O)c2OB1O , tested on Enterobacter cloacae, MEC: > 10 µg/mL

---

tested on: Escherichia coli; assay: Inhibition of Escherichia coli EC302 TEM-10 assessed as minimum concentration of compound needed to reduce the MIC of aztreonam to 4 ug/ml
The entries below are paired with their reported MEC.

Solved entries (count: 3):
1) Nc1nnc(S[C@H]2Cc3cccc(C(=O)O)c3OB2O)s1 ... > 10 µg/mL
2) COCCOc1ccc2c(c1C(=O)O)OB(O)[C@@H](Sc1nncs1)C2 ... > 20 µg/mL
3) O=C(O)c1cccc2c1OB(O)[C@@H](Sc1c[nH]nn1)C2 ... > 20 µg/mL

Measured MEC (Escherichia coli), entry O=C(O)c1cccc2c1OB(O)[C@@H](Sc1ncc[nH]1)C2 : > 10 µg/mL
